Cited source for all entries: paper PMC4703063

TARGET_UNDER_TEST: Δ1–352 DmOGT (Drosophila melanogaster, UniProt Q7KJA9)
Construct: N-terminally truncated construct starting at residue 353 in TPR 10 (part of TPRs plus catalytic domain); wild type in kinetics, K872M in crystal
PROTOCOL_DETAILS: radiometric transfer assay on RBL2 peptide, three-parameter dose-response fit
ENDPOINT_LABEL: pIC50
Field pIC50 (float): negative decimal logarithm of the concentration in molar.

query: // lookup pIC50 | system=Δ1–352 DmOGT (Drosophila melanogaster, UniProt Q7KJA9) | key= CC(=O)N[C@@H]1[C@@H](O)[C@H](O)[C@@H](CO)S[C@@H]1OP(=O)(O)OP(=O)(O)OC[C@H]1O[C@@H](n2ccc(=O)[nH]c2=O)[C@H](O)[C@@H]1O [UDP-5S-GlcNAc]
result: 4.17

====

TARGET_UNDER_TEST: Δ1–352 DmOGT (Drosophila melanogaster, UniProt Q7KJA9)
Construct: N-terminally truncated construct starting at residue 353 in TPR 10 (part of TPRs plus catalytic domain); wild type in kinetics, K872M in crystal
Sequence (Q7KJA9 353-1059): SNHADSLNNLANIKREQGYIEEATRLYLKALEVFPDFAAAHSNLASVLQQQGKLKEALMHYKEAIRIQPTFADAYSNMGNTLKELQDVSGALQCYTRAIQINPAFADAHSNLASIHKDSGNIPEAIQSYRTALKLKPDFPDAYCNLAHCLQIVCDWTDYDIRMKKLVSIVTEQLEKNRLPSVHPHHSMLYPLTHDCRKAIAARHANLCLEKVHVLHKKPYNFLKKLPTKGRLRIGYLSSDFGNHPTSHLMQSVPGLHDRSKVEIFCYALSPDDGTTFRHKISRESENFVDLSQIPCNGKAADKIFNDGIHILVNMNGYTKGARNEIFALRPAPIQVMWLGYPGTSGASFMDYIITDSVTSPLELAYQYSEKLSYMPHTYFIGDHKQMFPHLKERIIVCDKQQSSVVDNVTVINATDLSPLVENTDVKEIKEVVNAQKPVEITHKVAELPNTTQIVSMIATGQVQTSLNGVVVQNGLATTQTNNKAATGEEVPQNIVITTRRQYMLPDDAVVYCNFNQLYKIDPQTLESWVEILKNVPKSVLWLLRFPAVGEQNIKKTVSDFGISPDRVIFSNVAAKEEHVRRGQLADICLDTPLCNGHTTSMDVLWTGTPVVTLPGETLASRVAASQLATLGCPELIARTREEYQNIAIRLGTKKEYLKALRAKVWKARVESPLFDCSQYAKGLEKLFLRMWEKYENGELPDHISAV
PROTOCOL_DETAILS: radiometric transfer assay on RBL2 peptide, Ki from IC50 by Cheng-Prusoff
ENDPOINT_LABEL: Ki

query: Look at this compound and give its reported Ki. `CC(=O)N[C@@H]1[C@@H](O)[C@H](O)[C@@H](CO)S[C@@H]1OP(=O)(O)OP(=O)(O)OC[C@H]1O[C@@H](n2ccc(=O)[nH]c2=O)[C@H](O)[C@@H]1O`
result: 36.2 µM

====

TARGET_UNDER_TEST: Δ1–312 hOGT (Homo sapiens, UniProt O15294)
Construct: gene OGT; N-terminally truncated, residues 1-312 removed (printed once as Δ1-313 beside the Ki); part of TPRs plus catalytic domain; recombinant
Sequence (O15294 323-1041): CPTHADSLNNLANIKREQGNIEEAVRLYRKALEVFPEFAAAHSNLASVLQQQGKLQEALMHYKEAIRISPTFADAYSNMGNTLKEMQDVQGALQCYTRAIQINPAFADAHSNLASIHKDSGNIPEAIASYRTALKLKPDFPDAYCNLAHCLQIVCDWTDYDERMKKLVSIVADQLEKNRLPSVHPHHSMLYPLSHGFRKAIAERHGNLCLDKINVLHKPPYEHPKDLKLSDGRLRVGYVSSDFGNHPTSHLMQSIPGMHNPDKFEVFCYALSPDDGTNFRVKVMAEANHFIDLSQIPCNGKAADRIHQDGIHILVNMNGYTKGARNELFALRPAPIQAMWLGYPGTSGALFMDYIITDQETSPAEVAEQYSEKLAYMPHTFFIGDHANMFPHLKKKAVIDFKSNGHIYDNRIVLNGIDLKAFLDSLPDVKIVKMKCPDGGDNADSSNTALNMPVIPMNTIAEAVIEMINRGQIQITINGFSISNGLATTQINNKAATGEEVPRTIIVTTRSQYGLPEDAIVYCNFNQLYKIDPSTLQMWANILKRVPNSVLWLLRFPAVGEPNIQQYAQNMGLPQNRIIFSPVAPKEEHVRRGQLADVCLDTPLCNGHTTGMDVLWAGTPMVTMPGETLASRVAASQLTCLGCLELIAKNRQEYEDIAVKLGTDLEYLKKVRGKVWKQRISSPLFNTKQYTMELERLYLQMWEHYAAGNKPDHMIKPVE
PROTOCOL_DETAILS: radiometric transfer assay on RBL2 peptide, Ki from IC50 by Cheng-Prusoff
Format: biochemical
ENDPOINT_LABEL: pKi
# log scale: pKi equals minus log10 of the concentration in mol/L

query: Form field - read-out: pKi; system: Δ1–312 hOGT (Homo sapiens, UniProt O15294); submitted item: `CC(=O)N[C@@H]1[C@@H](O)[C@H](O)[C@@H](CO)S[C@@H]1OP(=O)(O)OP(=O)(O)OC[C@H]1O[C@@H](n2ccc(=O)[nH]c2=O)[C@H](O)[C@@H]1O`
result: 4.87
